- Test system: Raji
- protocol_notes: Inhibition of TPA-induced EBV-early antigen activation in human Raji cells assessed as early antigen induction at 1000 molar ratio relative to TPA
- Type: cell-based
- test_parameters: human gammaherpesvirus 4
Everything with EBV early antigen induction (% of TPA-only control) lower than 10% is not fulfilled; everything else, including exactly 10%, is fulfilled.

input: Item C/C1=C\C=C(\[C@@](C)(O)CO)C[C@H](O)/C(C)=C/CC[C@]2(C)O[C@H]2CC1 with EBV early antigen induction (% of TPA-only control) of 10% or above?
output: not fulfilled

input: And CC1=C2C[C@H](O)/C(C)=C/CC[C@]3(C)O[C@H]3CC/C(C)=C/[C@@H]2OC1=O ?
output: fulfilled

input: And C/C(CO)=C1\CC/C(C)=C/CC[C@]2(C)O[C@H]2CC/C(C)=C/[C@@H]1O ?
output: not fulfilled

input: And C/C1=C\C=C(\C(C)C)[C@@H](O)C/C(C)=C/CC/C(C)=C/CC1 ?
output: fulfilled

input: And C/C1=C\C=C(\[C@@](C)(O)CO)CC/C(C=O)=C/CC[C@]2(C)O[C@H]2CC1 ?
output: not fulfilled

###

- System: Raji
- protocol_notes: Inhibition of TPA-induced EBV-early antigen activation in human Raji cells assessed as early antigen induction at 10 molar ratio relative to TPA
- test_parameters: human gammaherpesvirus 4
measured_metric: EBV early antigen induction relative to TPA (%)
Your answer is read as %, so omit the unit and give the number.

input: // returns reported EBV early antigen induction relative to TPA for input C/C1=C\C=C(\[C@@](C)(O)CO)C[C@H](O)/C(C)=C/CC[C@]2(C)O[C@H]2CC1
output: 93.8

input: And CC1=C2C[C@H](O)/C(C)=C/CC[C@]3(C)O[C@H]3CC/C(C)=C/[C@@H]2OC1=O ?
output: 100

input: And C/C1=C\C=C(\[C@@](C)(O)CO)CC(=O)/C(C)=C/CC[C@]2(C)O[C@H]2CC1 ?
output: 94

input: And C/C1=C\C=C(\C(C)C)[C@@H](O)C/C(C)=C/CC/C(C)=C/CC1 ?
output: 97.3

input: And CC1=C2CC/C(C)=C/CC[C@]3(C)O[C@H]3CC/C(C)=C/[C@@H]2OC1=O [SARCOPHINE] ?
output: 100

input: And C/C(CO)=C1\CC/C(C)=C/CC[C@]2(C)O[C@H]2CC/C(C)=C/[C@@H]1O ?
output: 94.1

input: And CC1=C2CC/C(C=O)=C/CC[C@]3(C)O[C@H]3CC/C(C)=C/[C@@H]2OC1=O ?
output: 96

input: And C/C1=C\C=C(\[C@@](C)(O)CO)C[C@@H](O)/C(C)=C/CC[C@]2(C)O[C@H]2CC1 ?
output: 92.6

input: And C/C1=C\C=C(\[C@@](C)(O)CO)CC/C(C=O)=C/CC[C@]2(C)O[C@H]2CC1 ?
output: 90.6

###

What EBV early antigen induction (% of TPA-only control) was measured for each of the following?
- Test system: Raji
- protocol_notes: Inhibition of TPA-induced EBV-early antigen activation in human Raji cells assessed as early antigen induction at 1000 molar ratio relative to TPA
- Assay type: cell-based
- test_parameters: human gammaherpesvirus 4
Your answer is read as %, so omit the unit and give the number.

input: State its EBV early antigen induction (% of TPA-only control) on Raji: C/C1=C\C=C(\[C@@](C)(O)CO)C[C@@H](O)/C(C)=C/CC[C@]2(C)O[C@H]2CC1
output: 5.7

input: And CC1=C2CC/C(C=O)=C/CC[C@]3(C)O[C@H]3CC/C(C)=C/[C@@H]2OC1=O ?
output: 12.7

input: And CC1=C2CC/C(C)=C/CC[C@]3(C)O[C@H]3CC/C(C)=C/[C@@H]2OC1=O ?
output: 19.6

input: And C/C1=C\C=C(\[C@@](C)(O)CO)CC(=O)/C(C)=C/CC[C@]2(C)O[C@H]2CC1 ?
output: 8.3
